B1: tRNA (parent)
chain: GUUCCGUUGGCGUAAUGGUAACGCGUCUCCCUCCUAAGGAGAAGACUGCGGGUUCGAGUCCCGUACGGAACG

# Variants of: B1
# measurement.notes: yeast fitness relative to wild type (ratio to wild type); higher = fitter; tRNA-Arg(CCU), competitive growth, 37 C, YPD
Fewer inactive variants are shown than the library holds.
Decide by yeast fitness: equal to or exceeding 0.8 means true, less means false.

Here's what some known entries look like.
variant.string | class
G18A A70U | true
U19G A43U | true
C4G A21C A43U | false
G39C C49G C66U | false
U2A C61U | false
A20G C27G U35G | false
U28C A40U | true
C11G C33G A69U | false
U7C U53A G56C G63A | false

Prompt line: Kindly determine if yeast fitness recorded for C11U C27U U35C C61G is above or exactly 0.8.
Response line: false
